Target: Serine/threonine-protein kinase PLK4 (Homo sapiens)
Sequence (O00444 whole entry): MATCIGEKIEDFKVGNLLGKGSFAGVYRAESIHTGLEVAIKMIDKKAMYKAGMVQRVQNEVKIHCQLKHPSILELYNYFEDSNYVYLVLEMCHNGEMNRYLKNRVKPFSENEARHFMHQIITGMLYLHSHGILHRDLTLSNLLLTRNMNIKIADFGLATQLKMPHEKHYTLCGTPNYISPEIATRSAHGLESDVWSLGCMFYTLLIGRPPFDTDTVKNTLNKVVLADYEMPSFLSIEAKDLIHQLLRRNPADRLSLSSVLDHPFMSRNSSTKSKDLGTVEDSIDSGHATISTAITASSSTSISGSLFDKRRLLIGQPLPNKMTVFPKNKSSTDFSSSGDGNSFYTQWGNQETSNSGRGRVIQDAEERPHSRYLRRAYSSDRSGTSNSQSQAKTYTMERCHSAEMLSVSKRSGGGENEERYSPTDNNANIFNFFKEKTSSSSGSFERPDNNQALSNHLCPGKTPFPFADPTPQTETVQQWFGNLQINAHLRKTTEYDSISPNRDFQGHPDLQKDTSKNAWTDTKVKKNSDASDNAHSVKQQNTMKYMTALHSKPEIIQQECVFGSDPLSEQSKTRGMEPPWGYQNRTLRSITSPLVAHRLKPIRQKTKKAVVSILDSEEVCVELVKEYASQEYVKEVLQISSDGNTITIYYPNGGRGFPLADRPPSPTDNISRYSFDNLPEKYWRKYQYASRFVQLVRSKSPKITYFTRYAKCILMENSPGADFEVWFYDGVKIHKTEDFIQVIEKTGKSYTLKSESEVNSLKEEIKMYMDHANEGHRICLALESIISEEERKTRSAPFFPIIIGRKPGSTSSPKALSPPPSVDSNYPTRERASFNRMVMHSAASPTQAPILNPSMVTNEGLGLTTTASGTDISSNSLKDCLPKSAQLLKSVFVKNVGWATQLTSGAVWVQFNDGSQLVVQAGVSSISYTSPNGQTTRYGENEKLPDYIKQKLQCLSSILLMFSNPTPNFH
measured-attribute: IC50

- item-smiles: "O=C1N/C=C/c2ccc(c(Br)c2)Oc2cc(cc(Br)c2O)CCNC(=O)/C(=N/O)Cc2ccc(c(Br)c2)Oc2cc(cc(Br)c2O)C/C1=N\\O"
  measurement: "1900 nM"

###

// Aurora kinase A (Homo sapiens, UniProt O14965) IC50 records

- compound: "O=C1NCCc2ccc(O)c(c2)Oc2c(Br)cc(cc2Br)CCNC(=O)/C(=N/O)Cc2cc(Br)c(O)c(c2)Oc2c(Br)cc(cc2Br)C/C1=N\\O [BASTADIN 16]"
  experimental-system: "Aurora kinase A (Homo sapiens, UniProt O14965)"
  IC50 (nM): 1300
- compound: "O=C1N/C=C/c2ccc(c(Br)c2)Oc2cc(cc(Br)c2O)CCNC(=O)/C(=N/O)Cc2ccc(c(Br)c2)Oc2cc(cc(Br)c2O)C/C1=N\\O [BASTADIN 7]"
  experimental-system: "Aurora kinase A (Homo sapiens, UniProt O14965)"
  IC50 (nM): 3900
- compound: "O=C(NCCc1ccc(O)c(Br)c1)/C(Cc1cc(Br)c(O)c(-c2cc(C/C(=N/O)C(=O)NCCc3ccc(O)c(Br)c3)cc(Br)c2O)c1)=N\\O [BASTADIN 3]"
  experimental-system: "Aurora kinase A (Homo sapiens, UniProt O14965)"
  IC50 (nM): 100
- compound: "O=C1NCCc2cc(Br)c(O)c(c2)Oc2c(Br)cc(cc2Br)CCNC(=O)/C(=N/O)Cc2cc(Br)c(O)c(c2)Oc2c(Br)cc(cc2Br)C/C1=N\\O [BASTADIN 6]"
  experimental-system: "Aurora kinase A (Homo sapiens, UniProt O14965)"
  IC50 (nM): 1700
- compound: "O=C(NCCc1ccc(O)c(Br)c1)/C(Cc1cc(Br)c(O)c(Oc2ccc(CCNC(=O)/C(Cc3cc(Br)c(O)c(-c4cc(C/C(=N\\O)C(=O)NCCc5ccc(O)c(Br)c5)cc(Br)c4O)c3)=N/O)cc2Br)c1)=N/O [SESQUIBASTADIN 1]"
  experimental-system: "Aurora kinase A (Homo sapiens, UniProt O14965)"
  IC50 (nM): 2600

###

// Insulin receptor (Homo sapiens, UniProt P06213) pIC50 records
pIC50: −log10 of the molar value.

- item-smiles: "O=C1N/C=C/c2ccc(c(Br)c2)Oc2cc(cc(Br)c2O)CCNC(=O)/C(=N/O)Cc2ccc(c(Br)c2)Oc2cc(cc(Br)c2O)C/C1=N\\O"
  pIC50: 5.36
- item-smiles: "O=C(NCCc1ccc(O)c(Br)c1)/C(Cc1cc(Br)c(O)c(-c2cc(C/C(=N/O)C(=O)NCCc3ccc(O)c(Br)c3)cc(Br)c2O)c1)=N\\O"
  pIC50: 5.54

###

Molecular target: Cyclin-dependent kinase 4/cyclin D1 (Homo sapiens, UniProt P11802)
Sequence (P11802 whole entry): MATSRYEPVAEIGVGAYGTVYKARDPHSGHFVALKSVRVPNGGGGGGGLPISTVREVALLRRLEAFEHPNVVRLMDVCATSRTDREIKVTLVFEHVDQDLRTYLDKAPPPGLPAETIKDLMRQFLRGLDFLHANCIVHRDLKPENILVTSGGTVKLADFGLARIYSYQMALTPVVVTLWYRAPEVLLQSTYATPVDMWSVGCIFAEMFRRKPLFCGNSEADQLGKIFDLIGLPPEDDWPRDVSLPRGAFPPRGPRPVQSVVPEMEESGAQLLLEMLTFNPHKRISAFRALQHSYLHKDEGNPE
Sequence (P24385 whole entry, further chain): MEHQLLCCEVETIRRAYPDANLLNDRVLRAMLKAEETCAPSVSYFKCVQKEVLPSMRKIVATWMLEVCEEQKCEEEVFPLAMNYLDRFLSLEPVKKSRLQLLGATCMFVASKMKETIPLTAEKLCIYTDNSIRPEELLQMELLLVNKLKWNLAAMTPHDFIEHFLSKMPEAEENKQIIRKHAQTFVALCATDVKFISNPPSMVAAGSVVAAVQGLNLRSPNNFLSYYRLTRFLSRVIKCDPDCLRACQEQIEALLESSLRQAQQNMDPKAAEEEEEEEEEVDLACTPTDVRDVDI
Experiment: Inhibition of CDK4/cyclin-D1 (unknown origin)

- item-smiles: "O=C(NCCc1ccc(O)c(Br)c1)/C(Cc1cc(Br)c(O)c(Oc2ccc(CCNC(=O)/C(Cc3cc(Br)c(O)c(-c4cc(C/C(=N\\O)C(=O)NCCc5ccc(O)c(Br)c5)cc(Br)c4O)c3)=N/O)cc2Br)c1)=N/O"
  IC50, nM: 1400
- item-smiles: "O=C1NCCc2ccc(O)c(c2)Oc2c(Br)cc(cc2Br)CCNC(=O)/C(=N/O)Cc2cc(Br)c(O)c(c2)Oc2c(Br)cc(cc2Br)C/C1=N\\O"
  IC50, nM: 4000
- item-smiles: "O=C1N/C=C/c2ccc(c(Br)c2)Oc2cc(cc(Br)c2O)CCNC(=O)/C(=N/O)Cc2ccc(c(Br)c2)Oc2cc(cc(Br)c2O)C/C1=N\\O"
  IC50, nM: 2600
- item-smiles: "O=C(NCCc1ccc(O)c(Br)c1)/C(Cc1cc(Br)c(O)c(-c2cc(C/C(=N/O)C(=O)NCCc3ccc(O)c(Br)c3)cc(Br)c2O)c1)=N\\O"
  IC50, nM: 1500
- item-smiles: "O=C1NCCc2cc(Br)c(O)c(c2)Oc2c(Br)cc(cc2Br)CCNC(=O)/C(=N/O)Cc2cc(Br)c(O)c(c2)Oc2c(Br)cc(cc2Br)C/C1=N\\O"
  IC50, nM: 3600

###

// UniProt P04626 IC50 records
Sequence (P04626 whole entry): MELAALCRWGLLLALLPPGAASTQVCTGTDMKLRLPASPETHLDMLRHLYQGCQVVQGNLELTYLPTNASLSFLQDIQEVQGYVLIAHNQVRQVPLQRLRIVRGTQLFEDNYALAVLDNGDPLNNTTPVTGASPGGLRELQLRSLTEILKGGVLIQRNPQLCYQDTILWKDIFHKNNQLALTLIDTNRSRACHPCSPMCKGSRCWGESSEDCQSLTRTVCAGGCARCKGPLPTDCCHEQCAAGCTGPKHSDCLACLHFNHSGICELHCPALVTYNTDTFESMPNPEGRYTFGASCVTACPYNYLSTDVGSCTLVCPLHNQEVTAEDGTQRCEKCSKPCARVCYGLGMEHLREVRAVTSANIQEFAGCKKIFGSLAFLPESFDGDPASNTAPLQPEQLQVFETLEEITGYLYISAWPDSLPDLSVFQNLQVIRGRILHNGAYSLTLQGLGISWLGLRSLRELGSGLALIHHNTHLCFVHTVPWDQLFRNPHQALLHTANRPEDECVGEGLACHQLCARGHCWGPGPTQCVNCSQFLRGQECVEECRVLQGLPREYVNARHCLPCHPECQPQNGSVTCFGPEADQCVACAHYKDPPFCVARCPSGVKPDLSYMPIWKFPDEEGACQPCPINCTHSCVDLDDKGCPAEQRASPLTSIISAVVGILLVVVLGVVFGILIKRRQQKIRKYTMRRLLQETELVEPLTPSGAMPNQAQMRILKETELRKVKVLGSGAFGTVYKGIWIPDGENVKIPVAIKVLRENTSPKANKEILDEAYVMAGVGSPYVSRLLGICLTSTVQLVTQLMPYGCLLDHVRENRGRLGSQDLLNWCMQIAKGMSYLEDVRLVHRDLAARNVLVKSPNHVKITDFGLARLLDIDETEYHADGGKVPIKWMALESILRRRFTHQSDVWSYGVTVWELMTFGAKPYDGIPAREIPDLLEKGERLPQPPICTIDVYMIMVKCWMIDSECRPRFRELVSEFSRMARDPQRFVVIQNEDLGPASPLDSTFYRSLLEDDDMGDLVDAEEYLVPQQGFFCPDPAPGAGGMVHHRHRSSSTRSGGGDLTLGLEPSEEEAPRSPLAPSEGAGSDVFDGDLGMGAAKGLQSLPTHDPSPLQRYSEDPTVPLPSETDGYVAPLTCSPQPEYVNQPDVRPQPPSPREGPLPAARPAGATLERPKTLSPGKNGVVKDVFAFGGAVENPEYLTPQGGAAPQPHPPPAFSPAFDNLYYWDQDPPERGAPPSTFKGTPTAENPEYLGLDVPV

- item-smiles: "O=C(NCCc1ccc(O)c(Br)c1)/C(Cc1cc(Br)c(O)c(-c2cc(C/C(=N/O)C(=O)NCCc3ccc(O)c(Br)c3)cc(Br)c2O)c1)=N\\O"
  experimental-system: "UniProt P04626"
  IC50 (nM): 2100
- item-smiles: "O=C(NCCc1ccc(O)c(Br)c1)/C(Cc1cc(Br)c(O)c(Oc2ccc(CCNC(=O)/C(Cc3cc(Br)c(O)c(-c4cc(C/C(=N\\O)C(=O)NCCc5ccc(O)c(Br)c5)cc(Br)c4O)c3)=N/O)cc2Br)c1)=N/O"
  experimental-system: "UniProt P04626"
  IC50 (nM): 2100
- item-smiles: "O=C1N/C=C/c2ccc(c(Br)c2)Oc2cc(cc(Br)c2O)CCNC(=O)/C(=N/O)Cc2ccc(c(Br)c2)Oc2cc(cc(Br)c2O)C/C1=N\\O"
  experimental-system: "UniProt P04626"
  IC50 (nM): 2800
- item-smiles: "O=C1NCCc2ccc(O)c(c2)Oc2c(Br)cc(cc2Br)CCNC(=O)/C(=N/O)Cc2cc(Br)c(O)c(c2)Oc2c(Br)cc(cc2Br)C/C1=N\\O"
  experimental-system: "UniProt P04626"
  IC50 (nM): 4500
- item-smiles: "O=C1NCCc2cc(Br)c(O)c(c2)Oc2c(Br)cc(cc2Br)CCNC(=O)/C(=N/O)Cc2cc(Br)c(O)c(c2)Oc2c(Br)cc(cc2Br)C/C1=N\\O"
  experimental-system: "UniProt P04626"
  IC50 (nM): 7000

###

Parameter: IC50. Scope: all listed entries.
Biological target: NUAK family SNF1-like kinase 1 (Homo sapiens)
Sequence (O60285 whole entry): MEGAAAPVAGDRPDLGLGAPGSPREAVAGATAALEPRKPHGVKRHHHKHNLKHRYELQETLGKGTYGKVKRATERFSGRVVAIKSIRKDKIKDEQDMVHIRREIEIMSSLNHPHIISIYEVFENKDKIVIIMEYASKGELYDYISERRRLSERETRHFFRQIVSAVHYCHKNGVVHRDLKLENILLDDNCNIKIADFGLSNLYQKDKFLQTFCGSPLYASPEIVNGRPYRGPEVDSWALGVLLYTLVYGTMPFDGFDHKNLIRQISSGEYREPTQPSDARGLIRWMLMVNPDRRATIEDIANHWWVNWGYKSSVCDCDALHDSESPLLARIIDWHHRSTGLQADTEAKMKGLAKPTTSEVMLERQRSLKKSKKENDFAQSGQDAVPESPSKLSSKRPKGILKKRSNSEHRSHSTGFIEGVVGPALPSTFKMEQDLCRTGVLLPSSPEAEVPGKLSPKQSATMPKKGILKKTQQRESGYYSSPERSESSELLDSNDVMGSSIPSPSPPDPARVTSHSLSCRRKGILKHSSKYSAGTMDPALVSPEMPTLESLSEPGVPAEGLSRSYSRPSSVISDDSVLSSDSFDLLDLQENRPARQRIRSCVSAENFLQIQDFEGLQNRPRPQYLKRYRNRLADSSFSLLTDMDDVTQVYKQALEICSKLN
measured-attribute: IC50 (nM)

- compound: "O=C(NCCc1ccc(O)c(Br)c1)/C(Cc1cc(Br)c(O)c(-c2cc(C/C(=N/O)C(=O)NCCc3ccc(O)c(Br)c3)cc(Br)c2O)c1)=N\\O [BASTADIN 3]"
  experimental-system: "NUAK family SNF1-like kinase 1 (Homo sapiens)"
  quantity-unit: "nM"
  measurement: 1800
- compound: "O=C1N/C=C/c2ccc(c(Br)c2)Oc2cc(cc(Br)c2O)CCNC(=O)/C(=N/O)Cc2ccc(c(Br)c2)Oc2cc(cc(Br)c2O)C/C1=N\\O [BASTADIN 7]"
  experimental-system: "NUAK family SNF1-like kinase 1 (Homo sapiens)"
  quantity-unit: "nM"
  measurement: 3200
